Data origin: patent US5521315A

# Test system: mast cell degranulation
# measurement.description: Serotonin release assay (inhibition of mast cell degranulation)
# Format: cell-based
# protocol.conditions: Mast cell; 50 μM; Table 4
Class (by inhibition at 50 µM) -- lo: < 40%; med: ≥ 40% and < 60%; hi: ≥ 60%

CC/C=C\CCCCCN1C(=O)CCCC1=O [CT1607, N-(6-cis-nonenyl)glutarimide]
med
C=CCCCCCCCn1c(=O)c(C)cn(C)c1=O
med
C=CCCCCCCCn1c(=O)ccn(C)c1=O
med
C=CCCCCCCCCCN1C(=O)CCN(C)C1=O [CT1819, 3-(10-undecenyl)-1-methyldihydrouracil]
lo
C=CCCCCCCCn1c(=O)c2[nH]cnc2n(C)c1=O
lo
CC(C)=CCC[C@@H](C)CCCn1c(=O)c2c(ncn2C)n(C)c1=O [CT2536R]
hi
C=CCCCCCCCCCn1c(=O)c2c(ncn2C)n(C)c1=O
hi
C=CCCCCCn1c(=O)c2c(ncn2C)n(C)c1=O
lo

Continue with the compound presented below.
[Q] Hi, small favor: classify CC(C)=CCC[C@@H](C)CCn1c(=O)c2c(ncn2C)n(C)c1=O [CT1596R] by its inhibition at 50 µM when you get a moment.
[A] lo

* * *

# System: mast cell degranulation
# measurement.description: Serotonin release assay (inhibition of mast cell degranulation)
# Assay type: cell-based
# protocol.conditions: Mast cell; 50 μM; Table 4
Use 1 when the recorded inhibition at 50 µM is no lower than 60%; use -1 when it is lower.

Please review the following examples before continuing.
CC(C)=CCCC(C)=CCCC(C)=CCn1c(=O)c2c(ncn2C)n(C)c1=O [CT2544, 1-(Farnesyl)-3,7-dimethylxanthine]
1
C=CCCCCCCCCCN1C(=O)CCCC1=O [CT1610, N-(10-undecenyl)glutarimide]
1
C=CCCCCN1C(=O)c2ccccc2C1=O [CT1101, N(5-hexenyl)phthalimide]
1
CC/C=C\CCCCCn1c(=O)c2[nH]cnc2n(C)c1=O [CT1442, 1-(6-cis-nonenyl)-3-methylxanthine]
1
C=CCCn1c(=O)c2c(ncn2C)n(C)c1=O [CT2503, 1-(3-butenyl)-3,7-dimethylxanthine]
-1

[Q] Assess whether reported inhibition at 50 µM for CC(C)=CCC/C(C)=C/Cn1c(=O)c2c(ncn2C)n(C)c1=O [CT2545, 1-(Geranyl)-3,7-dimethylxanthine] sits at 60% or higher.
[A] 1

[Q] Assess whether reported inhibition at 50 µM for CC/C=C/CCCCCn1c(=O)c2c(ncn2C)n(C)c1=O [CT2512, 1-(6-trans-nonenyl)-3,7-dimethylxanthine] sits at 60% or higher.
[A] 1

[Q] Assess whether reported inhibition at 50 µM for CC/C=C\CCCCCn1c(=O)ccn(C)c1=O [CT1814, 3-(6-cis-nonenyl)1-methyluracil] sits at 60% or higher.
[A] -1

[Q] Assess whether reported inhibition at 50 µM for C=CCCCCn1c(=O)c(C)cn(C)c1=O [CT1905, 3-(5-hexenyl)-1-methylthymine] sits at 60% or higher.
[A] -1

[Q] Assess whether reported inhibition at 50 µM for C=CCCCCCCCCCCn1c(=O)c2c(ncn2C)n(C)c1=O [CT2516, 1-(11-dodecenyl)-3,7-dimethylxanthine] sits at 60% or higher.
[A] -1

[Q] Assess whether reported inhibition at 50 µM for CC/C=C\CCCCCn1c(=O)c2c(ncn2C)n(C)c1=O [CT1508, 1-(6-cis-nonenyl)-3,7-dimethylxanthine] sits at 60% or higher.
[A] -1

[Q] Assess whether reported inhibition at 50 µM for C=CCCCCCCCN1C(=O)CCCC1=O [CT1604, N-(8-nonenyl)glutarimide] sits at 60% or higher.
[A] 1

[Q] Assess whether reported inhibition at 50 µM for C=CC(O)CCCCCn1c(=O)c2c(ncn2C)n(C)c1=O (stereo not shown) [CT2508] sits at 60% or higher.
[A] 1

[Q] Assess whether reported inhibition at 50 µM for CC/C=C\CCCCCn1c(=O)c(C)cn(C)c1=O [CT1916, 3-(6-cis-nonenyl)-1-methylthymine] sits at 60% or higher.
[A] -1

[Q] Assess whether reported inhibition at 50 µM for C=CCn1c(=O)c2c(ncn2C)n(C)c1=O [CT1531, 1-(2-propenyl)-3,7-dimethylxanthine] sits at 60% or higher.
[A] -1
